Test system: HS 578T breast
Assay: NCI tumour cell line growth inhibition, 48 h
// values below are reported TGI

[[record]]
compound = "CC1CN=C(Nc2ccc(F)c(Cl)c2)S1 (stereo not drawn)"
measured_value = "> 100 µM"


Exercise: Suppose we examine the compound C=C1C(=O)O[C@H]2[C@H]1CC/C(COC(=O)NCCCCCCCCNC(=O)OC/C1=C/CC[C@@]3(C)O[C@H]3[C@H]3OC(=O)C(=C)[C@@H]3CC1)=C\CC[C@@]1(C)O[C@@H]21 ; what TGI value has been reported?
Key: 8.23 µM

Exercise: Report TGI for COC(=O)[C@]12CC[C@@H](C)[C@H](C)[C@@H]1C1=CC[C@@H]3[C@@]4(C)C(C=O)=C[C@@](C)(COC(=O)/C=C/c5ccccc5)[C@@H]4[C@H](O)C[C@@]3(C)[C@]1(C)CC2 please.
Key: 33.8 µM

Exercise: Need TGI of COc1ccc2c(c1)C(=O)c1c-2c(Nc2cccc(C(C)=O)c2)nc2ccccc12 , thanks.
Key: 15.5 µM

Exercise: Record request: TGI value, item Cc1ccc(S(=O)(=O)Nc2ccc(-c3cc(-c4cccc(F)c4)c(C#N)c(N)n3)cc2)cc1
Key: 7.48 µM

Exercise: Quick check: TGI of CC1(C)N=C(N)N=C(N)N1c1cccc(Br)c1 ?
Key: > 100 µM

Exercise: Look up TGI for this compound: c1ccc([P+](c2ccccc2)(c2ccccc2)C2c3ccccc3-c3ccccc32)cc1
Key: 5.75 µM

Exercise: Field request: TGI | item: COC1=CC(=O)C2=C(C[C@@]3(C)C(=C2)C(CO)=CC[C@H]3O)C1=O
Key: > 100 µM
